Where do these numbers come from? They come from patent US20090136516A1.

Biological target: T1, human CD20 (human, UniProt P11836 1-297)
T1 construct: whole, on cells; also called cell surface CD20
T1 sequence (looked up): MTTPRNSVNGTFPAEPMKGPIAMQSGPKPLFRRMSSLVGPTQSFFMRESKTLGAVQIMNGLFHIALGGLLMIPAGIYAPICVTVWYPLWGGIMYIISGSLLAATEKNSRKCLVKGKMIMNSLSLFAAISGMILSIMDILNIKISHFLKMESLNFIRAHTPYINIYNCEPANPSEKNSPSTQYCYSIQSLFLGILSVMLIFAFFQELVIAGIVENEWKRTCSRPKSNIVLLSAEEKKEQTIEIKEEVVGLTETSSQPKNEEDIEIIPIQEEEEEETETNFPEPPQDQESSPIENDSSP
Test: indirect immunofluorescence, flow cytometry, DHL-4 cells, saturating mAb
Listing of recorded mean linear fluorescence intensity by entry.

Here's what some known entries look like.
>  <binder>
HB20-4 monoclonal antibody (antibody, V domains shown, Used as tissue culture supernatant; also called HB20-04; HB13d) VH: EVQLQESGAELVKPGASVKMSCKASGFTFTNYNMHWVKQTPGQGLEWIGAIYPENGDTSYNQRFKGKATLTADKSSSTAYMHLSSLTSEDTAVYFCARFYYYGSYYGALDYWGQGTSVTVSS VL: DIQMTQSPASLSASVGETVTITCRASGSIHNYLAWYQQKLGKSPQLLVYNAKTLADGVPSRFSGSGSGTQFSLKINSLQPEDFGSYYCQHFWSIPWTFGGGTKLEIKR

>  <result>
578 mean linear fluorescence intensity

$$$$
>  <binder>
HB20-3 monoclonal antibody (antibody, V domains shown, Used as tissue culture supernatant; also called HB20-03; HB13c) VH: EVQLQESGAELVKPGASVKMSCKASGFTFTNYNMHWLKQTPGQGLEWIGAIYPENGDTSYNQKFKGKATLTADKASSTAYMHLSSLTSEDSAVYFCARFYYYGSYYGAMDYWGQGTSVTVSS VL: DIQMTQSPASLSASVGETVTITCRASGNIHNYLAWYQQKQGKSPQLLVYNAKTLADGVPSRFSGSGSGTQFSLKINSLQPEDFGSYYCQHFWSTPWTFGGGTKLEIKR

>  <result>
765 mean linear fluorescence intensity

$$$$

GET /values?readout=mean linear fluorescence intensity&item= HB20-25 monoclonal antibody (antibody, V domains shown, Used as tissue culture supernatant) VH: EVQLQESGAELVKPGASVKMSCKASGFRFTNYNLHWVKQTPGQGLEWIGAIYPGNGETSYNQKFKGKATLTADKSSSTAYMQLRSLTSGDSAVYYCARFYYYGSSYGAMDYWGQGTSVTVSS VL: DIQMTQSPASLSVSVGETVTITCRASENIYSNLAWYQQKQGKSPQLLVYAATNLADGVPSRFSGSGSGTQYSLKINSLQSEDFGSYYCQHFWGIPWTFGGGTKLEIKR
514 mean linear fluorescence intensity
